System: lipid peroxide in homogenates of brain, heart and kidneys
ASSAY_TEXT: Tissue migration: antioxidative action on lipids ex vivo in tissue homogenates after intraperitoneal administration
REPORTED_CONDITIONS: Rattus norvegicus, ip, 0.5 h; kidney; male SD rats, 100 mg/kg intraperitoneally, 30 minutes after administration; read-out: Inhibition rate of ex vivo anti-lipid peroxide action (%) Kidney
QUANTITY_MEASURED: inhibition at 100 mg/kg
Kindly write the number and append the unit.

Kindly indicate its recorded inhibition at 100 mg/kg. Item: Cc1c(C)c2c(c(C)c1N)CC(C)(C(=O)Nc1ccc(-c3ccn[nH]3)cc1)O2 (stereo not shown)
89%

Kindly indicate its recorded inhibition at 100 mg/kg. Item: Cc1c(C)c2c(c(C)c1O)CCC(C)(OC=Nc1ccc(-n3ccnc3)cc1)O2 (stereo not shown) [Control drug 2, reference compound]
84%

Kindly indicate its recorded inhibition at 100 mg/kg. Item: Cc1c(C)c2c(c(C)c1N)CC(C)(C(=O)Nc1ccc(-n3ccnc3)cc1)O2 (racemic)
87%

Kindly indicate its recorded inhibition at 100 mg/kg. Item: Cc1c(C)c2c(c(C)c1O)CC(C)(OC=Nc1ccc(-n3ccnc3)cc1)O2 (stereo not shown) [Control drug 1, reference compound]
75%
